Data origin, for the record: PubChem BioAssay AID1745844

Test system: rodent lifetime carcinogenesis bioassay, tumor incidence TD50
measurement.protocol: carcinogenic potency in animals, long-term in vivo studies, CPDB compilation (AID 1745844)
condition.info: mouse; strain B6C3F1; females; i.p.; site: lung; lesion: alveolar/bronchiolar adenoma + alveolar/bronchiolar carcinoma; dosed 48 weeks; study length 78 weeks
measured.metric: TD50
For clarity, give the value followed by its unit.

[in] Fill blank: measured TD50 of the compound "COc1cc2c(c3c1c(=O)c1ccccc1n3C)C=CC(C)(C)O2" is ____.
[out] 2.46 mg/kg/day

----------
Tested on: rodent lifetime carcinogenesis bioassay, tumor incidence TD50
measurement.protocol: carcinogenic potency in animals, long-term in vivo studies, CPDB compilation (AID 1745844)
condition.info: rat; strain Fischer 344; males; inhaled; site: multiple organs + spleen; lesion: mononuclear-cell leukemia; dosed 103 weeks; study length 105 weeks
measured.metric: TD50
For clarity, give the value followed by its unit.

[in] Fill blank: measured TD50 of the molecule CCC1CO1 (stereo unspecified) is ____.
[out] 30.7 mg/kg/day

----------
System: rodent lifetime carcinogenesis bioassay, tumor incidence TD50
measurement.protocol: carcinogenic potency in animals, long-term in vivo studies, CPDB compilation (AID 1745844)
condition.info: rat; strain F344/DuCrj; females; in feed; site: small intestine; lesion: adenocarcinoma; dosed 67 weeks; study length 67 weeks
measured.metric: TD50

[in] Param readout = TD50; param system = rodent lifetime carcinogenesis bioassay, tumor incidence TD50; param query = "Cc1cccn2c1nc1ccc(N)nc12" ; response: value
[out] 56.1 mg/kg/day

----------
System: rodent lifetime carcinogenesis bioassay, tumor incidence TD50
measurement.protocol: carcinogenic potency in animals, long-term in vivo studies, CPDB compilation (AID 1745844)
condition.info: mouse; strain C3H/HeN; males; in feed; site: liver; lesion: hepatocellular adenoma; dosed 77 weeks; study length 77 weeks
measured.metric: TD50

[in] Fill blank: measured TD50 of the molecule "O=C1c2cccc(O)c2C(=O)c2c(O)cccc21" is ____.
[out] 201 mg/kg/day

----------
System: rodent lifetime carcinogenesis bioassay, tumor incidence TD50
measurement.protocol: carcinogenic potency in animals, long-term in vivo studies, CPDB compilation (AID 1745844)
condition.info: hamster; strain Syrian Golden; males; in feed; site: forestomach; lesion: papilloma; dosed 50 weeks; study length 100 weeks
Activity calls are given as the source filed them. No rule for the calls is given here.
measured.metric: TD50

[in] Fill blank: measured TD50 of the compound "O=c1c(O)c(-c2ccc(O)c(O)c2)oc2cc(O)cc(O)c12" is ____.
[out] 1440 mg/kg/day (inactive)

----------
Test system: rodent lifetime carcinogenesis bioassay, tumor incidence TD50
measurement.protocol: carcinogenic potency in animals, long-term in vivo studies, CPDB compilation (AID 1745844)
condition.info: rat; strain F344/DuCrj; females; in drinking water; site: esophagus; lesion: squamous-cell carcinoma; dosed 97 weeks; study length 112 weeks
measured.metric: TD50

[in] Fill blank: measured TD50 of the compound "CCOC(=O)N(CC)N=O" is ____.
[out] 0.139 mg/kg/day

----------
System: rodent lifetime carcinogenesis bioassay, tumor incidence TD50
measurement.protocol: carcinogenic potency in animals, long-term in vivo studies, CPDB compilation (AID 1745844)
condition.info: mouse; strain Swiss albino; males; by gavage; site: lung; lesion: adenocarcinoma; dosed 95 weeks; study length 95 weeks
measured.metric: TD50

[in] Param readout = TD50; param system = rodent lifetime carcinogenesis bioassay, tumor incidence TD50; param query = "C[C@H]([C@H](O)CCC(C)(C)O)[C@H]1CC[C@@]2(O)C3=CC(=O)[C@@H]4C[C@@H](O)[C@@H](O)C[C@]4(C)[C@H]3CC[C@]12C" ; response: value
[out] 0.0558 mg/kg/day

----------
Test system: rodent lifetime carcinogenesis bioassay, tumor incidence TD50
measurement.protocol: carcinogenic potency in animals, long-term in vivo studies, CPDB compilation (AID 1745844)
condition.info: monkey; strain Rhesus [Macaca mulatta]; both sexes; in feed; site: upper gastrointestinal tract; lesion: squamous-cell carcinoma; dosed 928 weeks; study length 1139 weeks
measured.metric: TD50

[in] Fill blank: measured TD50 of the molecule "CN(N=O)C(N)=O" is ____.
[out] 7.18 mg/kg/day

----------
Tested on: rodent lifetime carcinogenesis bioassay, tumor incidence TD50
measurement.protocol: carcinogenic potency in animals, long-term in vivo studies, CPDB compilation (AID 1745844)
condition.info: rat; strain Fischer 344; females; in drinking water; site: mammary tissue, wider than the gland; lesion: carcinoma; dosed 30 weeks; study length 104 weeks
Measured TD50, listed per entry.

smiles.text	test.value
CCNC(=O)N(CCO)N=O	0.501 mg/kg/day

[in] Fill blank: measured TD50 of the compound "CCN(N=O)C(=O)NCC(C)=O" is ____.
[out] 0.748 mg/kg/day

[in] Fill blank: measured TD50 of the compound "CCN(N=O)C(=O)NCCO" is ____.
[out] 0.748 mg/kg/day

----------
Tested on: rodent lifetime carcinogenesis bioassay, tumor incidence TD50
measurement.protocol: carcinogenic potency in animals, long-term in vivo studies, CPDB compilation (AID 1745844)
condition.info: mouse; strain DDY; males; in feed; site: forestomach; lesion: squamous-cell carcinoma; dosed 44 weeks; study length 80 weeks
measured.metric: TD50

[in] Fill blank: measured TD50 of the compound "NC(=O)C(=Cc1ccc([N+](=O)[O-])o1)c1ccco1" is ____.
[out] 72.9 mg/kg/day

----------
Tested on: rodent lifetime carcinogenesis bioassay, tumor incidence TD50
measurement.protocol: carcinogenic potency in animals, long-term in vivo studies, CPDB compilation (AID 1745844)
condition.info: mouse; strain Swiss; females; in feed; site: urinary bladder; lesion: transitional-cell carcinoma; dosed 46 weeks; study length 66 weeks
measured.metric: TD50

[in] Fill blank: measured TD50 of the molecule "O=CNc1nc(-c2ccc([N+](=O)[O-])o2)cs1" is ____.
[out] 7.72 mg/kg/day

----------
System: rodent lifetime carcinogenesis bioassay, tumor incidence TD50
measurement.protocol: carcinogenic potency in animals, long-term in vivo studies, CPDB compilation (AID 1745844)
condition.info: rat; strain Fischer 344; females; by gavage; site: any site (literature study); lesion: several types; types named in the paper; dosed 103 weeks; study length 106 weeks
The source made the active and inactive calls. No rule for the calls is given here.
measured.metric: TD50

[in] Fill blank: measured TD50 of the molecule "C=CCOC(=O)CC(C)C" is ____.
[out] 43.5 mg/kg/day (inactive)

----------
System: rodent lifetime carcinogenesis bioassay, tumor incidence TD50
measurement.protocol: carcinogenic potency in animals, long-term in vivo studies, CPDB compilation (AID 1745844)
condition.info: rat; strain Fischer 344; females; by gavage; site: mammary gland; lesion: adenoma; dosed 37 weeks; study length 102 weeks
measured.metric: TD50 (mg/kg/day)
Give the number; mg/kg/day is assumed, so skip it.

[in] Fill blank: measured TD50 of the compound "CCNC(=O)N(C=O)CCN(C)C" is ____.
[out] 11.2

----------
Tested on: rodent lifetime carcinogenesis bioassay, tumor incidence TD50
measurement.protocol: carcinogenic potency in animals, long-term in vivo studies, CPDB compilation (AID 1745844)
condition.info: hamster; strain Syrian Golden; males; in feed; site: any site (literature study); lesion: several types; types named in the paper; dosed 106 weeks; study length 111 weeks
Calls of active or inactive are those of the source. How the calls were made is not given here.
measured.metric: TD50

[in] Fill blank: measured TD50 of the compound "CC(=O)[O-].CC(=O)[O-].CCC(=O)c1ccc(F)c([C@@H]2C[C@@H]2NC(=O)Nc2ccc(C#N)cn2)c1O.[Zn+2]" is ____.
[out] 54100 mg/kg/day (inactive)

----------
Tested on: rodent lifetime carcinogenesis bioassay, tumor incidence TD50
measurement.protocol: carcinogenic potency in animals, long-term in vivo studies, CPDB compilation (AID 1745844)
condition.info: monkey; strain Cynomolgus [Macaca fascicularis]; both sexes; in feed; site: esophagus; lesion: several types; types named in the paper; dosed 928 weeks; study length 1135 weeks
measured.metric: TD50

[in] Fill blank: measured TD50 of the molecule "CN(N=O)C(N)=O" is ____.
[out] 7.71 mg/kg/day

----------
Tested on: rodent lifetime carcinogenesis bioassay, tumor incidence TD50
measurement.protocol: carcinogenic potency in animals, long-term in vivo studies, CPDB compilation (AID 1745844)
condition.info: mouse; strain B6C3F1; females; inhaled; site: liver; lesion: hemangioma; dosed 95 weeks; study length 95 weeks
measured.metric: TD50

[in] Fill blank: measured TD50 of the molecule "FC(F)=C(F)F" is ____.
[out] 530 mg/kg/day

----------
Test system: rodent lifetime carcinogenesis bioassay, tumor incidence TD50
measurement.protocol: carcinogenic potency in animals, long-term in vivo studies, CPDB compilation (AID 1745844)
condition.info: rat; strain Fischer 344; females; by gavage; site: pancreatic islets; lesion: islet-cell adenoma; dosed 103 weeks; study length 104 weeks
The source made the active and inactive calls. How the calls were made is not given here.
measured.metric: TD50

[in] Fill blank: measured TD50 of the compound CC(O)c1ccccc1 (stereo unspecified) is ____.
[out] 2300 mg/kg/day (inactive)
